- Target Or System: KLHDC2^SBD (Homo sapiens, UniProt Q9Y2U9)
- Test Method Notes: Surface plasmon resonance binding to KLHDC2
- Design: KLHDC2^SBD (15-361) and its Avi-tagged counterpart were expressed in E. coli Rosetta2 cells; 6XHis-MBP (N, cleaved yes); made in house; host or cells: E. coli Rosetta2
- Condition Label: read-out: SPR Kd
Measure Name: Kd (µM)
Only the number, expressed in µM, is required.

Consider the following illustrative entries.
1. O=C(O)CNC(=O)Cc1csc(-c2ccccc2F)n1 [SJ6145]
16.9
2. O=C(O)CNC(=O)Cc1csc(-c2ccc(O)cc2Cl)n1 [SJ10280]
25.5
3. O=C(O)CNC(=O)Cc1csc(-c2cccc(Cl)c2)n1 [SJ10267]
19
4. COc1ccc(-c2nc(CC(=O)NCC(=O)O)cs2)c(Cl)c1 [SJ10272]
14.5

[ask] So what does the record say about Kd for COCOc1ccc(-c2nc(CC(=O)NCC(=O)O)cs2)cc1F [SJ45737] ?
[reply] 26.6

* * *

- Target Or System: neddylated CRL2^KLHDC2 / BRD3^BD2 (Homo sapiens, UniProt Q15059+Q9Y2U9, Q9Y2U9:G405K/Q9Y2U9:S406K)
- Test Method Notes: biochemical
Measure Name: IC50

[ask] So what does the record say about IC50 for "Cc1sc2c(c1C)C(c1ccc(Cl)cc1)=N[C@@H](CC(=O)N1CCN(CCOc3ccc4ccc(-c5nc(CC(=O)NCC(=O)O)cs5)cc4c3)CC1)c1nnc(C)n1-2" ?
[reply] 2200 nM

* * *

- Target Or System: KLHDC2^SBD (Homo sapiens)
- Sequence (Q9Y2U9 15-361): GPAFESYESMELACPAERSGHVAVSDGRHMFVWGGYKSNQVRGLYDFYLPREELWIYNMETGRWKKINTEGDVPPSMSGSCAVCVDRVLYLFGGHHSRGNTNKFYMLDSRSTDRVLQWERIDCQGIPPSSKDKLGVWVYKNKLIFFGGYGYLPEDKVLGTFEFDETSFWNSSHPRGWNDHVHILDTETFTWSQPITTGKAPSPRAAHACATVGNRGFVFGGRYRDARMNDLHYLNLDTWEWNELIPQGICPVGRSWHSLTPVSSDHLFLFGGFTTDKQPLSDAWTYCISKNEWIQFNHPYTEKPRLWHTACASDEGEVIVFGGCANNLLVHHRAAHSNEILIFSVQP
- Test Method Notes: ITC, binary binding of small molecule to KLHDC2^SBD
- Condition Label: cell: ligand; syringe: KLHDC2^SBD
Measure Name: ITC ΔH

Consider the following illustrative entries.
1) COCCOc1cccc2ccc(-c3nc(CC(=O)NCC(=O)O)cs3)cc12 [SJ46418]
-7.88 +/- 0.07 kcal/mol-1
2) O=C(O)CNC(=O)Cc1csc(-c2ccc3ccccc3c2)n1 [SJ46411]
-7.30 +/- 0.10 kcal/mol-1
3) Cc1sc2c(c1C)C(c1ccc(Cl)cc1)=N[C@@H](CC(=O)N1CCN(CCOc3ccc4ccc(-c5nc(CC(=O)NCC(=O)O)cs5)cc4c3)CC1)c1nnc(C)n1-2 [SJ46423]
-3.35 +/- 0.11 kcal/mol-1

Now turn to the next compound.
[ask] What is its ITC ΔH for KLHDC2^SBD (Homo sapiens)? Entry: Cc1sc2c(c1C)C(c1ccc(Cl)cc1)=N[C@@H](CC(=O)N1CCN(CCOc3cccc4ccc(-c5nc(CC(=O)NCC(=O)O)cs5)cc34)CC1)c1nnc(C)n1-2 [SJ46421]
[reply] -8.07 +/- 0.22 kcal/mol-1

The values you see were collected from paper PMC11470957.
